Where do the numbers come from? From PubChem BioAssay (NCI).

Below, each of the compounds is paired with its reported TGI value.
- System: A549 NSCLC
- Experiment Notes: NCI tumour cell line growth inhibition, 48 h

Observe how each entry below is paired with its result.
compound="Cc1ccc(NC(=O)CCC(=O)C2CC(=O)CC/C2=N\\NC(=O)c2cc3ccccc3cc2O)cc1C (stereo unspecified)" system_tested="A549 NSCLC" observed_result="> 100 µM"
compound=O=C(/C=C/N1CCN(c2cccc(C(F)(F)F)c2)CC1)c1ccc(Cl)cc1Cl system_tested="A549 NSCLC" observed_result="> 100 µM"
compound=CC1=CC2=C(C)C3(CC3)[C@@](C)(O)C(=O)C2=C1 system_tested="A549 NSCLC" observed_result="> 0.975 µM"
compound=c1ccc(C2=NN3CN(N2)c2ccccc2OCCCOc2ccccc23)cc1 system_tested="A549 NSCLC" observed_result="> 100 µM"
compound=Oc1cccc(-c2nc3ccccc3s2)c1 system_tested="A549 NSCLC" observed_result="> 100 µM"

Next up:
# TGI of CC1=NN(C(=O)CC(=O)Nc2cccc(Cl)c2)C(=O)C1N=Nc1ccc(S(N)(=O)=O)cc1 (stereo unspecified) = > 100 µM
